Each recorded value in this set is attributed to patent US20210147455A1.

# Test summary: Stability experiments under 40° C.±2° C. and 75% R.H±5% R.H (accelerated test)
# Assay type: physicochemical
# Setup conditions: month 3; 40° C./75% R.H
Assignment: determine reported Related substance for the given compounds.
I only need the number, in %, no unit after it.

(Q) Which Related substance is reported for this compound? CC[C@@H]([C@H](C)OP(=O)(O)O)n1ncn(-c2ccc(N3CCN(c4ccc(OC[C@@H]5CO[C@@](Cn6cncn6)(c6ccc(F)cc6F)C5)cc4)CC3)cc2)c1=O.N=C(N)NCCC[C@H](N)C(=O)O [Comparative Example 5, Posaconazole Phosphate Monoarginine Salt]
(A) 0.50

(Q) Could you do the same for CC[C@@H]([C@H](C)OP(=O)([O-])[O-])n1ncn(-c2ccc(N3CCN(c4ccc(OC[C@@H]5CO[C@@](Cn6cncn6)(c6ccc(F)cc6F)C5)cc4)CC3)cc2)c1=O.C[N+](C)(C)CCO.C[N+](C)(C)CCO [Comparative Example 1, Posaconazole Phosphate Bicholinate] , please?
(A) 0.20

(Q) Could you do the same for CC[C@@H]([C@H](C)OP(=O)([O-])[O-])n1ncn(-c2ccc(N3CCN(c4ccc(OC[C@@H]5CO[C@@](Cn6cncn6)(c6ccc(F)cc6F)C5)cc4)CC3)cc2)c1=O.O.O.O.O.O.[Na+].[Na+] [Comparative Example 9] , please?
(A) 0.55

###

# Test summary: in vivo
# Setup conditions: female, mouse, plasma, iv, 1 mg/kg
Endpoint name: concentration at 24 h (ng/mL)
I only need the number, in ng/mL, no unit after it.

(Q) Which concentration at 24 h is reported for this compound? CC[C@@H]([C@H](C)OP(=O)(O)O)n1ncn(-c2ccc(N3CCN(c4ccc(OC[C@@H]5CO[C@@](Cn6cncn6)(c6ccc(F)cc6F)C5)cc4)CC3)cc2)c1=O [Example 1, Posaconazole Phosphate Monocholinate]
(A) 7920

###

# Test summary: Stability experiments under 40° C.±2° C. and 75% R.H±5% R.H (accelerated test)
# Type: physicochemical
# Setup conditions: month 3; 40° C./75% R.H
Endpoint name: Description

{"columns": ["Compound", "Experimental result"],
 "data": [
  ["CC[C@@H]([C@H](C)OP(=O)(O)O)n1ncn(-c2ccc(N3CCN(c4ccc(OC[C@@H]5CO[C@@](Cn6cncn6)(c6ccc(F)cc6F)C5)cc4)CC3)cc2)c1=O [Example 1, Posaconazole Phosphate Monocholinate]", "White"],
  ["CC[C@@H]([C@H](C)OP(=O)(O)O)n1ncn(-c2ccc(N3CCN(c4ccc(OC[C@@H]5CO[C@@](Cn6cncn6)(c6ccc(F)cc6F)C5)cc4)CC3)cc2)c1=O.CNC[C@H](O)[C@@H](O)[C@H](O)[C@H](O)CO", "White"],
  ["CC[C@@H]([C@H](C)OP(=O)([O-])[O-])n1ncn(-c2ccc(N3CCN(c4ccc(OC[C@@H]5CO[C@@](Cn6cncn6)(c6ccc(F)cc6F)C5)cc4)CC3)cc2)c1=O.C[N+](C)(C)CCO.C[N+](C)(C)CCO [Comparative Example 1, Posaconazole Phosphate Bicholinate]", "White"]
]}

###

# Test summary: Stability experiments under 40° C.±2° C. and 75% R.H±5% R.H (accelerated test)
# Assay type: physicochemical
# Setup conditions: month 1; 40° C./75% R.H
Endpoint name: Content (%)
I only need the number, in %, no unit after it.

(Q) Which Content is reported for this molecule? CC[C@@H]([C@H](C)OP(=O)(O)O)n1ncn(-c2ccc(N3CCN(c4ccc(OC[C@@H]5CO[C@@](Cn6cncn6)(c6ccc(F)cc6F)C5)cc4)CC3)cc2)c1=O [Example 3]
(A) 99.87

(Q) Could you do the same for CC[C@@H]([C@H](C)OP(=O)([O-])[O-])n1ncn(-c2ccc(N3CCN(c4ccc(OC[C@@H]5CO[C@@](Cn6cncn6)(c6ccc(F)cc6F)C5)cc4)CC3)cc2)c1=O.C[N+](C)(C)CCO.C[N+](C)(C)CCO [Comparative Example 1, Posaconazole Phosphate Bicholinate] , please?
(A) 99.86

(Q) Could you do the same for CC[C@@H]([C@H](C)OP(=O)(O)O)n1ncn(-c2ccc(N3CCN(c4ccc(OC[C@@H]5CO[C@@](Cn6cncn6)(c6ccc(F)cc6F)C5)cc4)CC3)cc2)c1=O.N=C(N)NCCC[C@H](N)C(=O)O [Comparative Example 5, Posaconazole Phosphate Monoarginine Salt] , please?
(A) 99.72

(Q) Could you do the same for CC[C@@H]([C@H](C)OP(=O)([O-])[O-])n1ncn(-c2ccc(N3CCN(c4ccc(OC[C@@H]5CO[C@@](Cn6cncn6)(c6ccc(F)cc6F)C5)cc4)CC3)cc2)c1=O.O.O.O.O.O.[Na+].[Na+] , please?
(A) 99.72
